Listed here are binders together with their documented EC50.
Target: T1, human LILRB4 extracellular domain (ECD) recombinant protein (human, UniProt Q8NHJ6 22-259)
T1 construct: extracellular domain; also called LILRB4 ECD; LILRB4-ECD
Test: ELISA, coated LILRB4 ECD

binder: B4-72-2 (antibody, V domains shown, Rabbit monoclonal antibody) VH: EQSVEESGGRLVTPGTPLTLTCTASGFSLSSYYMSWVRQAPGRGLEYIGVINTGGSAVYATWTKGRFTISRTSTTVDLKMTGLTTEDTATYFCARGWSRGDLWGQGTLVTISS VL: ELDMTQTPSPVSAAVGGTVTIKCQSSQNVYDDDTLSWYQQKPGQPPKLLIYDASKLASGVPDRFSGSGSGTQFTLTISGVQCDDAATYYCLGVFHDGINNAFGGGTEVEIK
value_units: nM
EC50: 0.29
--
binder: B4-15-1 (antibody, V domains shown, Rabbit monoclonal antibody against human LILRB4 ECD) VH: SGGLEESGGRLVTPGTPLTLTCTASGFTINSAHMSWVRQAPGKGLEWIGFSTTGGPSYYANWAKGRFTISRTSTTVDLEITSPTIEDTATYFCARDGPGNNIDMDLWGQGTLVTITS VL: ELDLTQTPASVSEPVGGTVTIKCQASQNRGGSIAWYQQKPGQPPKLLIYSASTLASGVPSRFSGSGYGTEFTLTISGVQCADAGTYYCQSTIYSISDIGAFGGGTEVVVK
value_units: nM
EC50: 0.99
--
binder: B4-116-2 (antibody, V domains shown, Rabbit monoclonal antibody) VH: EQSVEESGGDLVKPGASLTLTCAASGFSFSSTYCMCWVRQAPGKGLEWIACIHGVSTNNRWYASWPKGRFTISKTSSTTVTLQMTSLTAADTATYFCARSDTDYEWGLSLWGPGTLVTISS VL: ELVMTQTPASVEAVVGGTVTIKCQASESIGSRLAWYQQKPGQRPKLLIYKASTLASGVPSRFSGSGSGTEFTLTVSDLECADVAAYYCQCAGQSSTWAFGGGTEVVVK
value_units: nM
EC50: 1.7
--
binder: B4-87 (antibody, V domains shown, Rabbit monoclonal antibody) VH: QSVKESGGDLVKPGASLTLTCTASGFSFISTYWICWVRQAPGKGLELIACIYTGGSGSTYYASWAKGRFTISKTSSTTVTLQLNSLTAADTATYFCARALYVDYVDYDYIDLWGPGTLVTVSS VL: ELDLTQTPASVEAAVGGTVTIKCQASENIGSRLAWYQQKPGQPPKLLIYAASNLASGVSSRFKGSRSGTQFTLTISDLECADAAIYYCQCSYYGSTYVFGFGGGTEVEIK
value_units: nM
EC50: 2.54
